Measured Potency, listed per entry.
# Assay: Confirmatory qHTS for Inhibitors of ATXN expression; also: potency is read from the fitted curve at half-maximal effect; nearly all actives have a fitted effect of over 65% in size
# Condition info: ATXN2-luciferase reporter cells, luminescence, 24 h; series mostly up to 11.5 µM
# Description: PI: Daniel Scoles Ph.D. University of Utah School of Medicine, Salt Lake City, Utah MLPCN Grant: NS073009 Spinocerebellar ataxia type 2 (SCA2) is a multisystem neurodegenerative disease caused by a dominantly acting mutation leading to expansion of a polyQ domain in the ataxin-2 protein (ATXN2). SCA2 patients develop progressive ataxia and later lose function in other neuronal systems. […] Here we describe a 5-7 dose quantitative high thoroughput screen (qHTS) for compounds lowering ATXN2 expression. […]
In all, about 2,100 compounds went through this assay and about 940 (45%) were called active. Inconclusive results (about 48%) are left out. The set was probably picked from earlier hits. The list shows a part of the results.

Examples with answers:
{"columns": ["Molecule", "Potency"],
 "data": [
  ["Cc1ccc(OCC(O)Cn2c(=N)n(CCN3CCCCC3)c3ccccc32)cc1 (stereo not given)", "14.1 µM (active)"],
  ["COc1cccc(NC(=O)CSc2nc3ncc(Br)cc3[nH]2)c1", "3.98 µM (active)"],
  ["Cc1csc2ncnc(NC3CCN(Cc4ccccc4)CC3)c12", "0.794 µM (active)"]
]}

Lookup: Need Potency, item NNC(=O)c1sc2cc(C(F)(F)F)cnc2c1-c1cccs1
Found: 28.2 µM (active)

Lookup: Give the measured Potency of CC1CCN(Cc2c(C(=O)N/N=C/c3ccccc3O)nnn2-c2nonc2N)CC1 .
Found: 1.78 µM (active)
